system: Escherichia Coli Exp. TO26 B6; assay: MIC, dilution in liquid medium; type: cell-based; details: Escherichia coli, 48 h
readout type: log10 MIC (log10 of the value in µg/mL)
Short version: log10 scale, MIC, µg/mL.

compound: C=CCO/N=C(\C(=O)N[C@@H]1C(=O)N2C(C(=O)O)=C(COC(C)=O)CS[C@H]12)c1csc(N)n1
readout number: 0.00
--
compound: CO/N=C(/C(=O)NC1C(=O)N2C(C(=O)O)=C(COC(C)=O)CSC12)c1csc(N)n1 (stereo not drawn)
readout number: 0.70
--
compound: CC(=O)OCC1=C(C(=O)O)N2C(=O)C(NC(=O)/C(=N\O)c3csc(N)n3)C2SC1 (stereo not drawn)
readout number: -1.00
--
compound: C=CO/N=C(\C(=O)NC1C(=O)N2C(C(=O)O)=C(COC(C)=O)CSC12)c1csc(N)n1 (stereo not drawn)
readout number: -0.70

Problem: Name the reported log10 MIC value associated with the compound "CO/N=C(\C(=O)N[C@@H]1C(=O)N2C(C(=O)O)=C(COC(C)=O)CS[C@H]12)c1csc(N)n1"
Result: -1.00

Problem: For the compound "CC(=O)OCC1=C(C(=O)O)N2C(=O)[C@@H](NC(=O)/C(=N/O)c3csc(N)n3)[C@H]2SC1" , what log10 MIC is on record?
Result: 0.30

----------
This section presents compounds with their documented MIC values.
system: Bacillus subtilis ATCC 6 633; assay: MIC, dilution in liquid medium; assay type: cell-based; conditions: Bacillus subtilis, ATCC6, 24 h, 24 H
Dear colleague, please return just the value in µg/mL, with no unit written.

compound: CO/N=C(/C(=O)NC1C(=O)N2C(C(=O)O)=C(COC(C)=O)CSC12)c1csc(N)n1 (stereo not shown)
readout number: 20
--
compound: CC(=O)OCC1=C(C(=O)O)N2C(=O)[C@@H](NC(=O)/C(=N/O)c3csc(N)n3)[C@H]2SC1
readout number: 2

Problem: Look at this compound and give its reported MIC. C=CO/N=C(\C(=O)NC1C(=O)N2C(C(=O)O)=C(COC(C)=O)CSC12)c1csc(N)n1 (stereo not shown)
Result: 2

Problem: Record request: MIC value, item "C=CCO/N=C(\C(=O)N[C@@H]1C(=O)N2C(C(=O)O)=C(COC(C)=O)CS[C@H]12)c1csc(N)n1"
Result: 1

----------
Below, each entry is listed with its recorded MIC.
test system: Streptococcus faecalis 5 432; assay: MIC, dilution in liquid medium; format: cell-based; settings: Enterococcus faecalis, 5432, 48 h, 48 H
Kindly answer with a numeric value in µg/mL, unit omitted.

Sample records with MIC:
compound: CC(=O)OCC1=C(C(=O)O)N2C(=O)C(NC(=O)/C(=N\O)c3csc(N)n3)C2SC1 (centres unmarked)
MIC / µg/mL: 5
--
compound: C=CO/N=C(\C(=O)NC1C(=O)N2C(C(=O)O)=C(COC(C)=O)CSC12)c1csc(N)n1 (centres unmarked)
MIC / µg/mL: 5
--
compound: CCO/N=C(\C(=O)N[C@@H]1C(=O)N2C(C(=O)O)=C(COC(C)=O)CS[C@H]12)c1csc(N)n1
MIC / µg/mL: 40

Now let's try a different one.
Problem: I have this compound here, "CO/N=C(\C(=O)N[C@@H]1C(=O)N2C(C(=O)O)=C(COC(C)=O)CS[C@H]12)c1csc(N)n1" , and I need its recorded MIC.
Result: 2
